- tgt: SSTR4 (Homo sapiens, UniProt P31391, V264F)
- Sequence (P31391 1-328 V264F): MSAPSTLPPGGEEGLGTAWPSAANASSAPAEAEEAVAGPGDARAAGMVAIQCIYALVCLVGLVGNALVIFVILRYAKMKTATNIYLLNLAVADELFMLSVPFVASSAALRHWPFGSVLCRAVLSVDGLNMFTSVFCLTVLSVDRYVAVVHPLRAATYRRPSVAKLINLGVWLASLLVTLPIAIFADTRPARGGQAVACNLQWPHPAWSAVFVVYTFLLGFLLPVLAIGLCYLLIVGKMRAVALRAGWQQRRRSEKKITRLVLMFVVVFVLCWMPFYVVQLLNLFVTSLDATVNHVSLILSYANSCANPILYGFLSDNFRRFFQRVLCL
- assay_method_text: cAMP accumulation assay (agonist-induced inhibition of forskolin-stimulated cAMP), SSTR4, HEK293F;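 further: transiently transfected cells incubated 40 min at room temperature with 4 µM forskolin and graded ligand, cAMP read by LANCE Ultra TR-FRET kit, values normalized to WT receptor per ligand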
- study_conditions: Construct 4 SSTR4 (V264F, C-terminal truncation)
value_kind: EC50 (pM)
Unit pM implied. Number only.

Return reported EC50; argument: `Cc1ccc(S(=O)(=O)N[C@@H](CCN)C(=O)N[C@@H](Cc2ccccc2)C(N)=O)c2ccccc12`
30

----------
- tgt: SSTR2 (Homo sapiens, UniProt P30874, Y205A)
- assay_method_text: cAMP accumulation assay (agonist-induced inhibition of forskolin-stimulated cAMP), SSTR2, HEK293F;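 further: transiently transfected cells exposed to 2 µM forskolin and a ligand concentration series for 40 min at room temperature in IBMX-containing HBSS, then cAMP quantified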
- study_conditions: SSTR2 mutant Y205^5.35A
value_kind: pEC50
For clarity, pEC50 is expressed as the negative log10 of concentration in mol/L.

Look at this compound and give its reported pEC50. `C[C@@H](c1c[nH]c2ccccc12)[C@@H](NC(=O)N1CCC(n2c(=O)[nH]c3ccccc32)CC1)C(=O)N[C@@H](CCCCN)C(=O)OC(C)(C)C`
11.00
